This collection of values is drawn from paper PMC3853024.

Assay: Pharmacokinetics of a letrozole-containing intravaginal device in heifers (plasma letrozole by LCMS/MS)
Assay type: in vivo, cattle (Hereford-cross beef heifers)
Details: female, Hereford-cross, bovine, plasma, 1 g, Heifer 3, intravaginal device 1 g letrozole; read-out: Maximal concentration (Cmax)
recorded metric: Cmax (ng/mL)
Numbers only, in ng/mL.

Give the reported Cmax for this compound. N#Cc1ccc(C(c2ccc(C#N)cc2)n2cncn2)cc1
27.3

====

Test: Pharmacokinetics of a letrozole-containing intravaginal device in heifers (plasma letrozole by LCMS/MS)
Type: in vivo, cattle (Hereford-cross beef heifers)
Conditions: female, Hereford-cross, bovine, plasma, 1 g, Heifer 1, intravaginal device 1 g letrozole; read-out: Systemic clearance (ClS) (converted)
recorded metric: clearance (mL/min/kg)
Numbers only, in mL/min/kg.

Give the reported clearance for this compound. N#Cc1ccc(C(c2ccc(C#N)cc2)n2cncn2)cc1
1.67

====

Assay: Pharmacokinetics of a letrozole-containing intravaginal device in heifers (plasma letrozole by LCMS/MS)
Type: in vivo, cattle (Hereford-cross beef heifers)
Details: female, Hereford-cross, bovine, plasma, 1 g, Heifer 4, intravaginal device 1 g letrozole; read-out: Maximal concentration (Cmax)
recorded metric: Cmax (ng/mL)
Answers are plain numbers, in ng/mL.

Give the reported Cmax for this molecule. N#Cc1ccc(C(c2ccc(C#N)cc2)n2cncn2)cc1 [Letrozole]
31.7

====

Assay: Pharmacokinetics of a letrozole-containing intravaginal device in heifers (plasma letrozole by LCMS/MS)
Type: in vivo, cattle (Hereford-cross beef heifers)
Conditions: female, Hereford-cross, bovine, plasma, 1 g, Heifer 4, intravaginal device 1 g letrozole; read-out: Mean residence time (MRT)
recorded metric: MRT

Give the reported MRT for this compound. N#Cc1ccc(C(c2ccc(C#N)cc2)n2cncn2)cc1 [Letrozole]
48.7 h

====

Experiment: Pharmacokinetics of a letrozole-containing intravaginal device in heifers (plasma letrozole by LCMS/MS)
Type: in vivo, cattle (Hereford-cross beef heifers)
Conditions: female, Hereford-cross, bovine, plasma, 1 g, Heifer 1, intravaginal device 1 g letrozole; read-out: Mean residence time (MRT)
recorded metric: MRT (h)
One number for each entry, in h.

Give the reported MRT for this compound. N#Cc1ccc(C(c2ccc(C#N)cc2)n2cncn2)cc1
71.5

====

Assay: Pharmacokinetics of a letrozole-containing intravaginal device in heifers (plasma letrozole by LCMS/MS)
Assay type: in vivo, cattle (Hereford-cross beef heifers)
Details: female, Hereford-cross, bovine, plasma, 1 g, Heifer 2, intravaginal device 1 g letrozole; read-out: Mean residence time (MRT)
recorded metric: MRT (h)
One number for each entry, in h.

Give the reported MRT for this compound. N#Cc1ccc(C(c2ccc(C#N)cc2)n2cncn2)cc1 [Letrozole]
56.2

====

Experiment: Pharmacokinetics of a letrozole-containing intravaginal device in heifers (plasma letrozole by LCMS/MS)
Assay type: in vivo, cattle (Hereford-cross beef heifers)
Settings: female, Hereford-cross, bovine, plasma, 1 g, Heifer 2, intravaginal device 1 g letrozole; read-out: Half-life (T1/2) (converted)
recorded metric: half-life

Give the reported half-life for this molecule. N#Cc1ccc(C(c2ccc(C#N)cc2)n2cncn2)cc1 [Letrozole]
20.4 h

====

Assay: Pharmacokinetics of a letrozole-containing intravaginal device in heifers (plasma letrozole by LCMS/MS)
Format: in vivo, cattle (Hereford-cross beef heifers)
Settings: female, Hereford-cross, bovine, plasma, 1 g, Heifer 4, intravaginal device 1 g letrozole; read-out: Volume of distribution (Vz/f)
recorded metric: Vd/F (L/kg)
Numbers only, in L/kg.

Give the reported Vd/F for this compound. N#Cc1ccc(C(c2ccc(C#N)cc2)n2cncn2)cc1 [Letrozole]
13.2

====

Experiment: Pharmacokinetics of a letrozole-containing intravaginal device in heifers (plasma letrozole by LCMS/MS)
Assay type: in vivo, cattle (Hereford-cross beef heifers)
Conditions: female, Hereford-cross, bovine, plasma, 1 g, Mean of 4 heifers, intravaginal device 1 g letrozole; read-out: Half-life (T1/2) (converted)
recorded metric: half-life (h)
Give bare numbers, in h.

Give the reported half-life for this molecule. N#Cc1ccc(C(c2ccc(C#N)cc2)n2cncn2)cc1
33

====

Assay: Pharmacokinetics of a letrozole-containing intravaginal device in heifers (plasma letrozole by LCMS/MS)
Assay type: in vivo, cattle (Hereford-cross beef heifers)
Conditions: female, Hereford-cross, bovine, plasma, 1 g, Heifer 3, intravaginal device 1 g letrozole; read-out: Half-life (T1/2) (converted)
Experimental: Intravaginal devices were prepared using a Cue-Mate spine (Bioniche Animal Health, Bellville, ON, Canada) assembled with two blank (progesterone-free) silicone pods that were coated with a gel-based vehicle containing letrozole or vehicle only (control). […] Plasma letrozole concentrations were quantified using liquid chromatography tandem mass spectrometry (LCMS/MS), as described. […] Quantification was performed using Analyst 1.4.1 software provided by SCIEX (Applied Bioscience). […]
recorded metric: half-life (h)
Numbers only, in h.

Give the reported half-life for this compound. N#Cc1ccc(C(c2ccc(C#N)cc2)n2cncn2)cc1
41.9

====

Assay: Pharmacokinetics of a letrozole-containing intravaginal device in heifers (plasma letrozole by LCMS/MS)
Type: in vivo, cattle (Hereford-cross beef heifers)
Conditions: female, Hereford-cross, bovine, plasma, 1 g, Mean of 4 heifers, intravaginal device 1 g letrozole; read-out: Volume of distribution (Vz/f)
recorded metric: Vd/F

Give the reported Vd/F for this compound. N#Cc1ccc(C(c2ccc(C#N)cc2)n2cncn2)cc1
8.5 L/kg

====

Assay: Pharmacokinetics of a letrozole-containing intravaginal device in heifers (plasma letrozole by LCMS/MS)
Assay type: in vivo, cattle (Hereford-cross beef heifers)
Settings: female, Hereford-cross, bovine, plasma, 1 g, Heifer 2, intravaginal device 1 g letrozole; read-out: Volume of distribution (Vz/f)
recorded metric: Vd/F (L/kg)
Answers are plain numbers, in L/kg.

Give the reported Vd/F for this compound. N#Cc1ccc(C(c2ccc(C#N)cc2)n2cncn2)cc1
4.9

====

Experiment: Pharmacokinetics of a letrozole-containing intravaginal device in heifers (plasma letrozole by LCMS/MS)
Format: in vivo, cattle (Hereford-cross beef heifers)
Details: female, Hereford-cross, bovine, plasma, 1 g, Heifer 3, intravaginal device 1 g letrozole; read-out: Systemic clearance (ClS) (converted)
recorded metric: clearance (mL/min/kg)
One number for each entry, in mL/min/kg.

Give the reported clearance for this compound. N#Cc1ccc(C(c2ccc(C#N)cc2)n2cncn2)cc1
3.33

====

Assay: Pharmacokinetics of a letrozole-containing intravaginal device in heifers (plasma letrozole by LCMS/MS)
Type: in vivo, cattle (Hereford-cross beef heifers)
Settings: female, Hereford-cross, bovine, plasma, 1 g, Heifer 3, intravaginal device 1 g letrozole; read-out: Volume of distribution (Vz/f)
recorded metric: Vd/F (L/kg)
Numbers only, in L/kg.

Give the reported Vd/F for this molecule. N#Cc1ccc(C(c2ccc(C#N)cc2)n2cncn2)cc1
9.9

====

Assay: Pharmacokinetics of a letrozole-containing intravaginal device in heifers (plasma letrozole by LCMS/MS)
Assay type: in vivo, cattle (Hereford-cross beef heifers)
Conditions: female, Hereford-cross, bovine, plasma, 1 g, Heifer 1, intravaginal device 1 g letrozole; read-out: Volume of distribution (Vz/f)
recorded metric: Vd/F (L/kg)
Give bare numbers, in L/kg.

Give the reported Vd/F for this molecule. N#Cc1ccc(C(c2ccc(C#N)cc2)n2cncn2)cc1
6.2

====

Assay: Pharmacokinetics of a letrozole-containing intravaginal device in heifers (plasma letrozole by LCMS/MS)
Format: in vivo, cattle (Hereford-cross beef heifers)
Details: female, Hereford-cross, bovine, plasma, 1 g, Heifer 2, intravaginal device 1 g letrozole; read-out: Systemic clearance (ClS) (converted)
recorded metric: clearance

Give the reported clearance for this compound. N#Cc1ccc(C(c2ccc(C#N)cc2)n2cncn2)cc1
3.33 mL/min/kg

====

Test: Pharmacokinetics of a letrozole-containing intravaginal device in heifers (plasma letrozole by LCMS/MS)
Type: in vivo, cattle (Hereford-cross beef heifers)
Conditions: female, Hereford-cross, bovine, plasma, 1 g, Mean of 4 heifers, intravaginal device 1 g letrozole; read-out: Mean residence time (MRT)
recorded metric: MRT

Give the reported MRT for this compound. N#Cc1ccc(C(c2ccc(C#N)cc2)n2cncn2)cc1
60.5 h
